Molecular target: Calcium-activated potassium channel subunit alpha-1 (Homo sapiens, UniProt Q12791)
Sequence (Q12791 whole entry): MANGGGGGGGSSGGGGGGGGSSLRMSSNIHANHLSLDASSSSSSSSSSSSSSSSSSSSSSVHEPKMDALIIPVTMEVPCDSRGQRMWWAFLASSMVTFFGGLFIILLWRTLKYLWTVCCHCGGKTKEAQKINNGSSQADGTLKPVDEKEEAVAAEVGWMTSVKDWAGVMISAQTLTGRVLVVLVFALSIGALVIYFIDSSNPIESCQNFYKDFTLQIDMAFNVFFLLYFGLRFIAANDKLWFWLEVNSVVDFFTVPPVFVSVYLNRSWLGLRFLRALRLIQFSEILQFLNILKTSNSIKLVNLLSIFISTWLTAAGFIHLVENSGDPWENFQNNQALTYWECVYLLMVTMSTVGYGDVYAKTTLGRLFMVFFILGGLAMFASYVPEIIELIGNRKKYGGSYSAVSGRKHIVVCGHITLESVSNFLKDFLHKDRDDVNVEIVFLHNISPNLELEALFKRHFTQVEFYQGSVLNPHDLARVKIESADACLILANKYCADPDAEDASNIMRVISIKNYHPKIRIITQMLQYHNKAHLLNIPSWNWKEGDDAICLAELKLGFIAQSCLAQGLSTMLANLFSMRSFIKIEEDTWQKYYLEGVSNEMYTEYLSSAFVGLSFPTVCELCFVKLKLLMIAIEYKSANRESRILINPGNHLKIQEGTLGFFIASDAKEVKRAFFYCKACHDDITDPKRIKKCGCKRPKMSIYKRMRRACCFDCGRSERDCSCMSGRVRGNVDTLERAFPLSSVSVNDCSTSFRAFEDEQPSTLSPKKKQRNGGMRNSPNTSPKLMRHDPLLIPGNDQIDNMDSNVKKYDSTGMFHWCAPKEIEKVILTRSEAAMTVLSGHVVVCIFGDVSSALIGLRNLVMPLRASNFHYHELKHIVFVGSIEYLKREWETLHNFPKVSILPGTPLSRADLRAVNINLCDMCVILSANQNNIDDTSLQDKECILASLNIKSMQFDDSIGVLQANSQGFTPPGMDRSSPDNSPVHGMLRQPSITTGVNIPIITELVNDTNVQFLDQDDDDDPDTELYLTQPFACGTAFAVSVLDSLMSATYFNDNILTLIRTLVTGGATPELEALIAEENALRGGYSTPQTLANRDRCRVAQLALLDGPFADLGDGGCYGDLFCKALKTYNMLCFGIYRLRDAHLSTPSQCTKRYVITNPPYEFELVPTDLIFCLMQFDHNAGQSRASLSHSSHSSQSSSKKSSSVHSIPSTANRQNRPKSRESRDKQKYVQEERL
Assay: Inhibition of human KCNMA1 expressed in HEK293 cells assessed as reduction in 100+ mV pulse elicited current by inside-out configuration based patch clamp method
REPORTED PROPERTY: IC50 (nM)

C=C(C)[C@@H]1CCC(C)=C[C@H]1c1c(O)cc(CCCCC)cc1O [CANNABIDIOL] :: 280
